System: Escherichia coli TOP10;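 note: peptides expressed intracellularly from a pBAD plasmid library in pooled LB shake-flask culture, induced with 0.3% L-arabinose, DNA abundance read by NGS, three biological replicates, DESeq2 with apeglm shrinkage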
PROTOCOL SUMMARY: shrunken log2 fold change of peptide-encoding DNA abundance (4.5 h post-induction vs induction); higher = less antimicrobial activity (less host growth inhibition)
PARTICULARS: time post-induction: 4.5 h; library: site-saturation at positions 5, 18, 19, 20
Classify by measured shrunken log2 fold change: fulfilled if it is equal to or exceeds 0.1, not fulfilled if it is smaller.

{"ENTRY SEQUENCE": "RRIRGRPPRLPRPRPRPQLDPRP", "CAT": "fulfilled"}
{"ENTRY SEQUENCE": "RRIRNRPPRLPRPRPRPLDMPRP", "CAT": "not fulfilled"}
{"ENTRY SEQUENCE": "RRIRIRPPRLPRPRPRPDCRPRP", "CAT": "not fulfilled"}
{"ENTRY SEQUENCE": "RRIRPRPPRLPRPRPRPINSPRP", "CAT": "not fulfilled"}
{"ENTRY SEQUENCE": "RRIRERPPRLPRPRPRPLAQPRP", "CAT": "fulfilled"}
{"ENTRY SEQUENCE": "RRIRMRPPRLPRPRPRPIGGPRP", "CAT": "not fulfilled"}
{"ENTRY SEQUENCE": "RRIRERPPRLPRPRPRPHDFPRP", "CAT": "not fulfilled"}
{"ENTRY SEQUENCE": "RRIRQRPPRLPRPRPRPQAFPRP", "CAT": "not fulfilled"}
{"ENTRY SEQUENCE": "RRIRVRPPRLPRPRPRPDTGPRP", "CAT": "not fulfilled"}
{"ENTRY SEQUENCE": "RRIRYRPPRLPRPRPRPDLFPRP", "CAT": "fulfilled"}
{"ENTRY SEQUENCE": "RRIRWRPPRLPRPRPRPTMIPRP", "CAT": "not fulfilled"}
{"ENTRY SEQUENCE": "RRIRNRPPRLPRPRPRPMPQPRP", "CAT": "not fulfilled"}
{"ENTRY SEQUENCE": "RRIRDRPPRLPRPRPRPQPPPRP", "CAT": "fulfilled"}
{"ENTRY SEQUENCE": "RRIRDRPPRLPRPRPRPPWEPRP", "CAT": "not fulfilled"}
{"ENTRY SEQUENCE": "RRIRWRPPRLPRPRPRPLAQPRP", "CAT": "fulfilled"}
{"ENTRY SEQUENCE": "RRIRVRPPRLPRPRPRPEVDPRP", "CAT": "fulfilled"}
{"ENTRY SEQUENCE": "RRIRGRPPRLPRPRPRPEALPRP", "CAT": "fulfilled"}
{"ENTRY SEQUENCE": "RRIRDRPPRLPRPRPRPRALPRP", "CAT": "fulfilled"}
{"ENTRY SEQUENCE": "RRIRWRPPRLPRPRPRPVHAPRP", "CAT": "fulfilled"}
{"ENTRY SEQUENCE": "RRIRHRPPRLPRPRPRPKVRPRP", "CAT": "not fulfilled"}
{"ENTRY SEQUENCE": "RRIRVRPPRLPRPRPRPHDYPRP", "CAT": "not fulfilled"}
{"ENTRY SEQUENCE": "RRIRVRPPRLPRPRPRPYCLPRP", "CAT": "not fulfilled"}
{"ENTRY SEQUENCE": "RRIRLRPPRLPRPRPRPFERPRP", "CAT": "fulfilled"}
{"ENTRY SEQUENCE": "RRIRTRPPRLPRPRPRPGYGPRP", "CAT": "not fulfilled"}
{"ENTRY SEQUENCE": "RRIRQRPPRLPRPRPRPPGVPRP", "CAT": "fulfilled"}
{"ENTRY SEQUENCE": "RRIRWRPPRLPRPRPRPPAYPRP", "CAT": "not fulfilled"}

Cited source for all entries: the supplement of paper PMC9112550
